Test system: VISA ATCC 700699
ASSAY_INFO: MIC, agar dilution, VISA ATCC 700699
Format: cell-based
CONDITION_DESCRIPTION: Staphylococcus aureus; VISA ATCC 700699; read-out: MIC
ASSAY_METRIC: MIC (µg/mL)
Numbers only here, please. The scale is µg/mL.

Supply recorded MIC for COc1ccc2c(c[n+]3ccc4cc5c(c6c(Cc7ccc([N+](=O)[O-])cc7)cc2c3c46)OCO5)c1O [13r] here.
4

Supply recorded MIC for COc1ccc2c(c[n+]3ccc4cc5c(c6c(Cc7cc(C)cc(C)c7)cc2c3c46)OCO5)c1O [13j] here.
32

Supply recorded MIC for COc1ccc2c(c[n+]3ccc4cc5c(c6c(Cc7cccc([N+](=O)[O-])c7)cc2c3c46)OCO5)c1O [13q] here.
64
